This collection of values is drawn from patent US8778974B2.

- measured on: hα7-wt nAChR-expressing GH4Cl cells (Homo sapiens)
- Construct: expressed in transfected cells
- Sequence (P36544 23-502): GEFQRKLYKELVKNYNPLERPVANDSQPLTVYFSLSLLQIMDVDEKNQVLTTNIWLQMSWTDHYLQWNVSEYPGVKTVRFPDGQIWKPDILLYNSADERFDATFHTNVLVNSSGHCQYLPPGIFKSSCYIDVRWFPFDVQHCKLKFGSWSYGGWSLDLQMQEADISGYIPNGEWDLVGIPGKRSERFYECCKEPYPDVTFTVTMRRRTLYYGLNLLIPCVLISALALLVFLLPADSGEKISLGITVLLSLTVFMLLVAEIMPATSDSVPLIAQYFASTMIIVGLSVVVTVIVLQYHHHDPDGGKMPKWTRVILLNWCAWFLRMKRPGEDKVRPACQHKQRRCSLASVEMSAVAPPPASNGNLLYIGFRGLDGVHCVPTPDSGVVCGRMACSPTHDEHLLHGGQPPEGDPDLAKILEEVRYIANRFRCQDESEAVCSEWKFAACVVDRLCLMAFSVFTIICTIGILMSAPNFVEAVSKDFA
- procedure summary: Patch-clamp current recording (whole-cell), potentiation of choline 1 mM response, PAM type
- Format: cell-based
- recorded conditions: according to Ex. D.2; "<5" = no top plateau reached at maximal concentration; read-out: Potency (pEC50) (converted)
# label = Y if EC50 < 500 nM else N

Field: example entries. Status: answers known.
molecule: Cc1cc(-n2nc(Nc3cccc(Cl)c3)nc2C[C@H](C)O)ccn1 [E23]
classification: N
--
molecule: CNC(=O)Cc1nc(Nc2cc(OC)cc(C(F)(F)F)c2)nn1-c1cc(C)nc(C)c1 [E243]
classification: Y
--
molecule: Cc1cc(-n2nc(Nc3cc(F)cc(F)c3)nc2CC(=O)NC2CCC2)cc(C)n1 [E239]
classification: Y

Challenge: EC50 under 500 nM? Item: CCNC(=O)Cc1nc(Nc2cc(F)cc(C(F)(F)F)c2)nn1-c1cc(C)nc(C)c1 [E252]
Response given: Y
